Some variants, each annotated with its measured self-cleavage.
B1: Osa-1-4 twister ribozyme (parent)
chain: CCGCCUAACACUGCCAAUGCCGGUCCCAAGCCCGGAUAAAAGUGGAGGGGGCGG

Variants of: B1
Assay: self-cleavage, relative activity (ratio to wild type); higher = more cleavage; co-transcriptional
Just the number, please, no unit after it.

Take a look at these entries with their results.
sequence-entry | self-cleavage
CCGCCUAACACUGCCAAUGCCGGUCCCAAGCCCGGAUAAAAGUGGAGGGGGGAG | 0.57
CCGCCUAACACUGCCAAUGCCAGUCCCAAGCCCGGAUAAAAGUGGAGGGCGCGG | 0.68
CCGCCUAACACUGCCAAUGCGGGUCCCAAGCGCGGAUAAAAGUGGAGGGGGCGG | 0.06
CCGCCUAACACUGCCAAUGCCGGUCCCAAGCACGGAUAAAAGUGGAGGUGGCGG | 0.04
CCGCCUAACACUGCCAAUGCCGGUCCCAAGCCCGGUCAAAAGUGGAGGGGGCGG | 1.07

QUERY: Report self-cleavage for CCGCCUAACACUGCCAGUGCCGGUCCCAAGCCCGGAUAAAAGUGGAGGGGGCGG please.
RESULT: 0.97

QUERY: Report self-cleavage for CCGCCUAACACUGCCAAUGCCGGUCCCAGGUCCGGAUAAAAGUGGAGGGGGCGG please.
RESULT: 0.12

QUERY: Report self-cleavage for CCGCCUAACACUGCCGAUGCCGGUCCCAAGCCCGGAUAAGAGUGGAGGGGGCGG please.
RESULT: 0.77

QUERY: Report self-cleavage for CCGCCUAACACUGCCAAUGCCGGUCCCACGCCCGGAUAAAAGUGGAGGGGGUGG please.
RESULT: 0.06

QUERY: Report self-cleavage for CCGCCUAACACUGCCAAUGCCGGUCCUAAGCCCGGAUAAAAGUGAAGGGGGCGG please.
RESULT: 0.05

QUERY: Report self-cleavage for CCGCCUAGCACUGCCAAUGCCGGUCCCAAGCCCGGAUAAAAGUGGACGGGGCGG please.
RESULT: 0.07

QUERY: Report self-cleavage for CCGCCUAACUCUGCCAAUGCCGGUCCCAAGCCCGGAUGAAAGUGGAGGGGGCGG please.
RESULT: 0.07

QUERY: Report self-cleavage for CCGCCUAACUCUGCCAAUGCCGGUCCCAAGCCCGGAUAAAAGUGGCGGGGGCGG please.
RESULT: 0.02

QUERY: Report self-cleavage for CCGCCUAACACUGCCAAUGCCGGUCCCAAGCCCGGAGAAUAGUGGAGGGGGCGG please.
RESULT: 0.94

QUERY: Report self-cleavage for CCGCCUAACACUGCCAAUGCCUGUCCCAAGCCCGGAUAAAAUUGGAGGGGGCGG please.
RESULT: 0.05

QUERY: Report self-cleavage for CCGCCUAGCACUGCCAAUGCCGGUCCCAAGCCUGGAUAAAAGUGGAGGGGGCGG please.
RESULT: 0.21

QUERY: Report self-cleavage for CCGCCUACCACUGCCAAUGCCGGUCCCAAGCCCGGAUAAAAGUGCAGGGGGCGG please.
RESULT: 0.02

QUERY: Report self-cleavage for CCGCCUAACACUGCCAAUGCCGGUCCUAAGCUCGGAUAAAAGUGGAGGGGGCGG please.
RESULT: 0.06

// provenance: the RNAGym collection of RNA variant scans (doi:10.1002/anie.201605470)
